test system: K-562 leukemia; assay: NCI-60 one-dose screen, 48 h; details: 10 µM unless noted
About 83,000 compounds went through this panel and 20% of them were active in at least one assay; those are over-represented in the sample as a whole. Calls of active or inactive are those of the source. Rule for the calls: active = growth percent below 10; inactive = the rest.
Assign a class; possible classes are active, inactive

Solved cases below.
{"MOLECULE": "c1ccc(-c2nc3sc(C(c4ccccc4)c4ccccc4)nn3c2-c2ccccc2)cc1", "CLASSIFICATION": "inactive"}
{"MOLECULE": "CC(=O)N[C@@H](CNC(=O)c1cc(NC(=O)c2cc(NC(=O)c3cc(NC(=O)c4nccn4C)cn3C)cn2C)cn1C)CC(=O)Nc1cn(C)c(C(=O)Nc2cc(C(=O)Nc3cc(C(=O)Nc4cc(C(=O)NCCCN(C)CCCNC(=O)c5cccc(C(=O)O)c5)n(C)c4)n(C)c3)n(C)c2)n1", "CLASSIFICATION": "inactive"}

Please share the test call associated with CCN(CC)CCNc1ccc([N+](=O)[O-])c2sc3cc(Cl)ccc3c(=O)c12 .
active

Please share the test call associated with COc1ccc(Cn2cc3c(c2-c2cc(OC)c(OC)c(OC)c2)CCc2c(CO)noc2-3)cc1 .
active
